Target: TbINO1 (Trypanosoma brucei brucei, UniProt Q5QQ46)
Sequence (Q5QQ46 1-528): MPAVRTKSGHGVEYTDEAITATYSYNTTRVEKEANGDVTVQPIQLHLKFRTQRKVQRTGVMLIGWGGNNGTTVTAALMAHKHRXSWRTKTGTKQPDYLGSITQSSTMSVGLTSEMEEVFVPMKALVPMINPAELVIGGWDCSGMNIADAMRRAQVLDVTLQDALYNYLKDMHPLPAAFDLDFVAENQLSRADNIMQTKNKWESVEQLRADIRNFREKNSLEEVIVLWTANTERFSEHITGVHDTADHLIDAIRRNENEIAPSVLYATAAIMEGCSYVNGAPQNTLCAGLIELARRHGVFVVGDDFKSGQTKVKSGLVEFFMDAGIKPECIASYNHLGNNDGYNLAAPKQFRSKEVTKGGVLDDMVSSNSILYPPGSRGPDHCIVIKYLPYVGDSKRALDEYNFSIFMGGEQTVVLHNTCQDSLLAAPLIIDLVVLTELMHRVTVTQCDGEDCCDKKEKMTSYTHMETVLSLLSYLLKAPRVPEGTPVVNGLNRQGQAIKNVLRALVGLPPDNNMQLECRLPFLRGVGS
Test: biochemical
Format: binding
Conditions: read-out: Tb Ino1 Tm Shift [˚C]
Entries whose ΔTm at 1000 µM is below 0.5 °C take yes; entries at or above 0.5 °C take no.

Worked examples follow.
Task: Does the reported ΔTm at 1000 µM of the following compound sit strictly below 0.5 °C? COc1cccc(OC)c1SC
Output: yes

Task: Another compound to look at: CNCc1cccc(-c2ccncc2)c1
Output: yes

Task: Record: OCc1cccnc1N1CCCCC1
Output: no

Task: What would you report for Nc1cccc(N2CCOCC2)c1 ?
Output: yes

---
Task: Lab note: ΔTm at 1000 µM threshold 0.5 °C. Does this compound come in strictly under it? Cc1cc(Cl)ccc1C(=O)O
Output: no

Task: Could you do the same for COC(=O)c1cccc(N)c1 [compound 194, methyl 3‐aminobenzoate] , please?
Output: no

Task: Queued: OCc1ccccc1Cl
Output: yes

Task: Proceed to Nc1cccc(-c2cccs2)c1
Output: yes
